Where do these numbers come from? They come from patent US20260365670A1.

assayed target: EGFR Exon19Del (Homo sapiens, UniProt P00533, DEL746-750)
Construct: purchased Carna Bio
Sequence (P00533 with tags, fused parts or gaps DEL746-750 limits assumed): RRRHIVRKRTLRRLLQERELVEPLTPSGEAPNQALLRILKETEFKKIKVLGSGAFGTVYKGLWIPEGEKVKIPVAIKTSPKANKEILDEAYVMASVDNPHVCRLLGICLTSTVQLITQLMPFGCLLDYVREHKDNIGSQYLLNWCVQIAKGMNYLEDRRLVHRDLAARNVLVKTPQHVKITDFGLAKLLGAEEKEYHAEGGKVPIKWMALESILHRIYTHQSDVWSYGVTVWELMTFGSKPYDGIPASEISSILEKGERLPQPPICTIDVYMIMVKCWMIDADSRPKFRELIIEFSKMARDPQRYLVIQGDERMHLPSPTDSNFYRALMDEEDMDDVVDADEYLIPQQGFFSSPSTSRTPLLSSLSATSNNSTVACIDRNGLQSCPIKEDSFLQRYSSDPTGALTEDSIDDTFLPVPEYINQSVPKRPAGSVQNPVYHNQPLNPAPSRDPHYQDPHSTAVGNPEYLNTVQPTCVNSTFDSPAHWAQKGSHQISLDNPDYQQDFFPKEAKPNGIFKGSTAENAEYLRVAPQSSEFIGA
experimental protocol: Inhibition of EGFR Exon19Del biochemical enzymatic activity (HTRF)
test parameters: EGFR Del19, 1 mM ATP, 1 h, room temperature, read-out: IC50 @Del19

compound	assayed target	IC50 / nM
CN1CCN(c2ccc3nc4n(c3c2)CCN(CC(F)(F)F)CCOc2c(cnn2C2CC2)-c2cc(cn(C)c2=O)C(=O)N4)CC1	EGFR Exon19Del (Homo sapiens, UniProt P00533, DEL746-750)	3.5
C[C@@H]1CCCOc2c(cnn2C)-c2cc(cn(C)c2=O)C(=O)Nc2nc3ccc(N4CCN(C5COC5)CC4)cc3n2C1	EGFR Exon19Del (Homo sapiens, UniProt P00533, DEL746-750)	5.9
C[C@@H]1CCCOc2c(cnn2C)-c2cc(cn(C)c2=O)C(=O)Nc2nc3ccc(N(C)CCN(C)C)cc3n2C1	EGFR Exon19Del (Homo sapiens, UniProt P00533, DEL746-750)	3
C[C@@H]1CCCOc2c(cnn2C)-c2cc(cn(C)c2=O)C(=O)Nc2nc3ccc(N4CCN(C)CC4)cc3n2C1	EGFR Exon19Del (Homo sapiens, UniProt P00533, DEL746-750)	1.6
C[C@@H]1CCCOc2c(cnn2C)-c2cc(cn(C)c2=O)C(=O)Nc2nc3ccc(N4CCNCC4)c(Cl)c3n2C1	EGFR Exon19Del (Homo sapiens, UniProt P00533, DEL746-750)	4.7
Cn1ncc2c1OCCN1CC3CCC(C3)(C1)n1c(nc3cc(F)ccc31)NC(=O)c1cc-2c(=O)n(C)c1 (stereo not drawn) [Example A117B]	EGFR Exon19Del (Homo sapiens, UniProt P00533, DEL746-750)	23
C[C@@H]1CCCOc2c(cnn2C)-c2cc(cn(C)c2=O)C(=O)Nc2nc3ccc(N4CC5(CCN(C)CC5(F)F)C4)cc3n2C1	EGFR Exon19Del (Homo sapiens, UniProt P00533, DEL746-750)	9.1
Cn1ncc2c1OCCN1CC3CCC(CC3)(C1)n1c(nc3ccccc31)NC(=O)c1cc-2c(=O)n(C)c1	EGFR Exon19Del (Homo sapiens, UniProt P00533, DEL746-750)	97
CN1CCC2(CCN(c3ccc4nc5n(c4c3)C34CCC(CN(CCOc6c(cnn6C)-c6cc(cn(C)c6=O)C(=O)N5)C3)C4)C2)C1 (single isomer, unassigned) [Example A81B]	EGFR Exon19Del (Homo sapiens, UniProt P00533, DEL746-750)	1.8
CN1CCC2(CN(c3ccc4nc5n(c4c3)C34CCC(CN(CCOc6c(cnn6C)-c6cc(cn(C)c6=O)C(=O)N5)C3)C4)C2)C(F)(F)C1 (single isomer, unassigned) [Example A91B]	EGFR Exon19Del (Homo sapiens, UniProt P00533, DEL746-750)	4
CN(C)[C@H]1CCN(c2ccc3nc4n(c3c2)C23CCC(CN(CCOc5c(cnn5C)-c5cc(cn(C)c5=O)C(=O)N4)C2)C3)C1 (single isomer, unassigned) [Example A66B]	EGFR Exon19Del (Homo sapiens, UniProt P00533, DEL746-750)	1.9
CN1CCN(c2ccc3c(c2)nc2n3C34CCC(CN(CCOc5c(cnn5C)-c5cc(cn(C)c5=O)C(=O)N2)C3)C4)CC1 (stereo not drawn) [Example A60A]	EGFR Exon19Del (Homo sapiens, UniProt P00533, DEL746-750)	276
CN1CCN(C2CCN(c3ccc4nc5n(c4c3)C34CCC(CN(CCOc6c(cnn6C)-c6cc(cn(C)c6=O)C(=O)N5)C3)C4)C2)CC1 (single isomer, unassigned) [Example A80B1]	EGFR Exon19Del (Homo sapiens, UniProt P00533, DEL746-750)	3.2
Cn1ncc2c1OCCN1CC3CCC(C3)(C1)n1c(nc3cc(F)c(N4CCOCC4)cc31)NC(=O)c1cc-2c(=O)n(C)c1 (single isomer, unassigned) [Example A118B]	EGFR Exon19Del (Homo sapiens, UniProt P00533, DEL746-750)	8.7
CN(C)CC1(F)CN(c2ccc3nc4n(c3c2)C23CCC(CN(CCOc5c(cnn5C)-c5cc(cn(C)c5=O)C(=O)N4)C2)C3)C1 (single isomer, unassigned) [Example A72B]	EGFR Exon19Del (Homo sapiens, UniProt P00533, DEL746-750)	1.8
C[C@@H]1CCCOc2c(cnn2C)-c2cc(cn(C)c2=O)C(=O)Nc2nc3ccc4c(c3n2C1)CCN(C)C4	EGFR Exon19Del (Homo sapiens, UniProt P00533, DEL746-750)	7.4
CN1CCC2CN(c3ccc4nc5n(c4c3)C34CCC(CC3)CN(CCOc3c(cnn3C)-c3cc(cn(C)c3=O)C(=O)N5)C4)CC21 (stereo not drawn)	EGFR Exon19Del (Homo sapiens, UniProt P00533, DEL746-750)	15
Cn1ncc2c1OCCN1CC3CCC(C3)(C1)n1c(nc3ccc(N4CCC(N5CC(F)C5)C4)cc31)NC(=O)c1cc-2c(=O)n(C)c1 (single isomer, unassigned) [Example A94A]	EGFR Exon19Del (Homo sapiens, UniProt P00533, DEL746-750)	830
